Each recorded value in this set is attributed to patent US20240400703A1.

SYSTEM: recombinant human OX40 fused to a His-tag (Acro Biosystems, cat. no. OX0-H5224) (human) (UniProt P43489)
Sequence (P43489 29-214 limits assumed): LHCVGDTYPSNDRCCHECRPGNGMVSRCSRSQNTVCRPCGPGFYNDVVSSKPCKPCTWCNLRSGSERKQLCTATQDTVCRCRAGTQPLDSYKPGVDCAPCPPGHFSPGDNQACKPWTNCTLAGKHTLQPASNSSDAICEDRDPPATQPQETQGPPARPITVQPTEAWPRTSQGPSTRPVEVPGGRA
MEASUREMENT_NOTES: BLI cross-block; first Ab (competitor): IgG1-CD134-003-HC6LC2-RR
METRIC_NAME: association response (nm)

BINDER: IgG1-CD134-GBR830 (antibody, INN chains, looked up, V domains shown, IgG1) VH: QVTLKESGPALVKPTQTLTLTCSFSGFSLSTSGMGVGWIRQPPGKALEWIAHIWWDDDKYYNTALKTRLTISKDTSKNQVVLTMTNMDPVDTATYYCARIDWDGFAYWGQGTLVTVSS VL: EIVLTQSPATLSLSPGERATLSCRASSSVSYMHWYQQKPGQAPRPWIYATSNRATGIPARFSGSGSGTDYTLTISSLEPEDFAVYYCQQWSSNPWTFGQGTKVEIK
NUMERIC_VALUE: 1.08
